System: SK-MEL-5 melanoma
protocolDetails: NCI-60 one-dose screen, 48 h (100 = growth as untreated, 0 = no growth, -100 = all killed)
assayConditions: 10 µM unless noted
About 83,000 compounds went through this panel and 20% of them were active in at least one assay; those are over-represented in the sample as a whole.
Please respond with Criterion met when measured growth is strictly beneath 40%, and with Criterion not met in all other cases.

- compound: "COc1cc2nc(Cl)nc(Nc3cccc(C4=Nc5c(N)nc(N)nc5NC(c5ccc(F)cc5)C4)c3)c2cc1OC (stereo unspecified)"
  category: "Criterion not met"
- compound: "O=C(c1ccc(Cl)cc1)C1[C@H](c2ccc(Cl)cc2)[C@@H](c2ccccc2)NC12C(=O)Nc1ccccc12 (stereo partly specified)"
  category: "Criterion not met"
- compound: "COc1cc(OC)cc(C(=O)Nc2cccc(C#Cc3cccc4[nH]nc(N)c34)c2)c1"
  category: "Criterion met"
- compound: "c1cn2c(ccc3nc(-c4cn[nH]c4)c4c(c32)CCCC4)n1"
  category: "Criterion not met"
- compound: "CCOc1cccc(-c2nc3sccn3c2-c2ccnc(S(C)(=O)=O)n2)c1"
  category: "Criterion not met"
- compound: "CCNC(=O)N1CCc2cc(OC)c(OCCc3ccc(OC)cc3)cc2C1c1ccc([N+](=O)[O-])cc1C (stereo unspecified)"
  category: "Criterion met"
- compound: "Cc1cccc(/C=C/C(=O)Nc2ncc(Cc3cccc(C)c3)s2)c1"
  category: "Criterion met"
- compound: "COc1cc(OC)c(/C=C/S(=O)(=O)Cc2ccc(OC)c(NCC(=O)NO)c2)c(OC)c1"
  category: "Criterion met"
- compound: "COc1cc2nc(Cl)nc(Nc3cccc(C4=Nc5c(N)nc(N)nc5NC(c5ccc(Cl)cc5)C4)c3)c2cc1OC (stereo unspecified)"
  category: "Criterion not met"
- compound: "C=C(C)[C@@H]1CC[C@]2(COCCCNCCC#N)CC[C@]3(C)[C@H](CC[C@@H]4[C@@]5(C)CC[C@H](OCCCNCCC#N)C(C)(C)[C@@H]5CC[C@]43C)[C@@H]12"
  category: "Criterion met"
- compound: "CCN(CC)c1cn(-c2ccc(S(N)(=O)=O)cc2)nn1"
  category: "Criterion not met"
- compound: "COc1cc(/C=C2\\C(=O)Nc3ccccc32)ccc1OCc1ccc(Cl)cc1"
  category: "Criterion not met"
- compound: "Nc1cc(F)ccc1NC(=O)c1ccc(NC(=O)C/C=C/c2cccnc2)cc1"
  category: "Criterion not met"
- compound: "CCN1CCN(Cc2ccc(C(=O)Nc3ccc(C)c(Oc4ccc(-c5[nH]nc6ncnc(N)c56)cc4)c3)cc2C(F)(F)F)CC1"
  category: "Criterion not met"
- compound: "CC(C)(C)CC(C)(C)n1nnnc1C(Nc1nccs1)c1cc2cccc3ccc4cccc1c4c32 (stereo unspecified)"
  category: "Criterion not met"
- compound: "N#Cc1cccc(CN2CCC3=C(C2)C(=O)N(Cc2ccc(Cl)cc2)C2=NCCCN23)c1"
  category: "Criterion met"
- compound: "CN(C)CCCOc1ccc2c(c1)CN(C(=O)c1cc(C(=O)N3Cc4cccc(F)c4C3)ccc1O)C2"
  category: "Criterion not met"
- compound: "C=C(C=O)[C@@H]1CC[C@]2(COC(C)=O)CC[C@]3(C)C(CC[C@@H]4[C@@]5(C)CC[C@H](OC(C)=O)C(C)(C)[C@@H]5CC[C@]43C)[C@@H]12 (stereo partly specified)"
  category: "Criterion met"
- compound: "O=C(CCn1c[n+](CC(=O)c2ccc(F)cc2)c2ccccc21)Nc1cccc2cccnc12"
  category: "Criterion met"
- compound: "O=S(=O)(NCCCNc1nccc(-c2[nH]c(-c3ccccc3)nc2-c2ccc(Cl)c(O)c2)n1)c1ccc(Br)cc1"
  category: "Criterion met"
- compound: "CC1(C)CC[C@]2(C(=O)N3CCOCC3)CC[C@]3(C)C(=CC[C@@H]4[C@@]5(C)C/C(=C/c6ccco6)C(=O)C(C)(C)[C@@H]5CC[C@]43C)[C@@H]2C1"
  category: "Criterion not met"
- compound: "c1n[nH]cc1-c1nc2ccc3[nH]ncc3c2c2c1CCCC2"
  category: "Criterion met"
- compound: "CCOC(=O)c1c(Nc2ccccc2)nn2c(-c3ccc(Cl)cc3)ccnc12"
  category: "Criterion not met"
- compound: "COc1cc(Cn2cc3c(c2)-c2onc(CN4CCOCC4)c2CC3)cc(OC)c1OC"
  category: "Criterion not met"
- compound: "CC(=O)c1cc(C(=O)c2ccc(Br)cc2)n2cc(C)cc(C)c12"
  category: "Criterion not met"
- compound: "O=C(CNc1nc(-c2cccc([N+](=O)[O-])c2)cs1)Nc1cccc(Cl)c1"
  category: "Criterion not met"
- compound: "C=CCn1c(SCC(=O)Nc2ccc(C(=O)/C=C/c3ccc(Cl)cc3)cc2)nnc1-c1c[nH]c2ccccc12"
  category: "Criterion not met"
- compound: "O=[N+]([O-])c1cc(/C=N/Nc2nc(N/N=C/c3ccc(Cl)c([N+](=O)[O-])c3)nc(N3CCCCC3)n2)ccc1Cl"
  category: "Criterion not met"
- compound: "C=CC(=O)N1CCC=C(c2cc3c(N[C@H](C)c4ccccc4)ncnc3[nH]2)C1"
  category: "Criterion not met"
- compound: "Nn1c(N/N=C/c2nc3ccccc3s2)n[nH]c1=S"
  category: "Criterion not met"
- compound: "CC(C)(C)c1ccc(C(=O)Nc2nc3ccc(O)cc3s2)cc1"
  category: "Criterion met"
- compound: "COc1ccc(C2c3sc4c(C)cccc4c3Oc3nc(CC(=O)Nc4ccccc4)[nH]c(=O)c32)cc1 (stereo unspecified)"
  category: "Criterion not met"
- compound: "CCc1cccc(NC(=O)CNc2cc(S(=O)(=O)N(C)C)cc(C)c2C)c1"
  category: "Criterion not met"
- compound: "CCCn1cnc2c(c1=N)C(c1ccc(F)cc1)c1sc3c(C)cccc3c1O2 (stereo unspecified)"
  category: "Criterion met"
- compound: "O=S(=O)(Nc1ccc2c(c1)OCO2)c1ccc(-c2cnc(C3CC3)o2)cc1"
  category: "Criterion met"
- compound: "N#Cc1cccc(CN2CCC3=C(C2)C(=O)N(Cc2ccc(Cl)cc2)C2=NCCN23)c1"
  category: "Criterion met"

====

System: NCI-H522 lung
protocolDetails: NCI-60 one-dose screen, 48 h
assayConditions: 10 µM unless noted
Protocol: Growth inhibition of the NCI-H522 human Non-Small Cell Lung tumor cell line is measured as a screen for anti-cancer activity. Cells are grown in 96 well plates and exposed to the test compound for 48 hours. Compounds are tested at a single concentration, which is 10^-5 M for most compounds. The reported endpoint is percent growth (GI% or GIPRCNT), where numbers from 0 - 100% represent growth inhibition, and numbers from -100% - 0 represent cell death. […]
This is part of a sample that, as a whole, favours compounds with a hit. Of some 83,000 tested, about 20% had one in any assay. Calls of active or inactive are those of the source. The calls were made as follows: active = growth percent below 10; inactive = the rest.
Classes used: active, inactive

- compound: "Cc1cc(C)n(C(=O)c2sc(=S)n(-c3ccccc3)c2N=Nc2c(N)n[nH]c2N)n1"
  category: "inactive"
- compound: "COc1cc2nc(Cl)nc(Nc3cccc(C4=Nc5c(N)nc(N)nc5NC(c5ccc(Br)cc5)C4)c3)c2cc1OC (configuration not stated)"
  category: "inactive"
- compound: "COC(=O)C1(C)CCC[C@]2(C)[C@H]3C[C@H]4C(C(C)C)=C[C@]3(CC[C@@H]12)[C@H]1[C@@H]4[C@@H](OC(=O)c2ccco2)CC[C@@H]1OC(=O)c1ccco1 (some centres not stated)"
  category: "inactive"
- compound: "O=C(NNc1nc2cc(F)ccc2n2c(CN3CCC(O)C3)ccc12)c1cnccn1 (configuration not stated)"
  category: "active"
- compound: "COc1cccc2c1CN(C(=O)c1ccc(O)c(C(=O)N3Cc4ccc(OCCC[P+](c5ccccc5)(c5ccccc5)c5ccccc5)cc4C3)c1)C2"
  category: "inactive"
- compound: "O=C(c1ccc(O)c(C(=O)N2Cc3ccc(OCCC[P+](c4ccccc4)(c4ccccc4)c4ccccc4)cc3C2)c1)N1Cc2cccc(F)c2C1"
  category: "inactive"
- compound: "COc1cc2nc(Cl)nc(Nc3cccc(C4=Nc5c(N)nc(N)nc5NC(c5ccc(Cl)cc5)C4)c3)c2cc1OC (configuration not stated)"
  category: "inactive"

====

System: HCT-15 colon
protocolDetails: NCI-60 one-dose screen, 48 h (100 = growth as untreated, 0 = no growth, -100 = all killed)
assayConditions: 10 µM unless noted
The panel holds about 83,000 compounds, 20% with a hit somewhere; the sample as a whole holds those more often.
Output schema: class label derived from growth. Mapping: A: < 20%; B: ≥ 20% and < 80%; C: ≥ 80%

- compound: "CCOC(=O)C(=O)/C(=C\\c1ccc(Cl)cc1)C(=O)N1C(=S)NC(=O)C1CC(C)C (centres undefined)"
  category: "C"
- compound: "CCCn1cnc2c(c1=N)C(c1ccc(Cl)cc1)c1sc3c(CC)cccc3c1O2 (centres undefined)"
  category: "A"
- compound: "N#Cc1c(-c2cccs2)cc(-c2cnccn2)nc1SCC(=O)Nc1ccc(Br)cc1"
  category: "C"
- compound: "C=CCn1c(-c2nc3ccc(C(=C(C#N)C#N)c4ccccc4)cc3[nH]2)cc2cc(Br)ccc21"
  category: "B"
- compound: "Cn1cc(-c2nc(N)nnc2-c2c[nH]c3ccc(Br)cc23)c2cc(Br)ccc21"
  category: "B"
- compound: "Cn1ccnc1C(=O)/C=C/c1ccc(CNC(=O)c2ccc(Cl)cc2)cc1"
  category: "A"
- compound: "CS(=O)(=O)Nc1cc(-c2ccc3ncc(C#N)c(N[C@H](CO)c4ccccc4)c3c2)cnc1Cl"
  category: "B"
- compound: "Cc1ccc(-c2nnc(SCc3ccc(O)c4ncccc34)n2-c2ccccc2)cc1"
  category: "A"
